Below, each entry is listed with its recorded inhibition.
Test protocol: M. tuberculosis H37Rv growth inhibitors, H37Rv strain (AID 1626);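 note: bacteria incubated seven days before Alamar blue readout; 0% = bacteria only wells and 100% = bacteria with antibiotic wells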
Condition: hits give high values, concentration not given here
The whole screen tested about 220,000 compounds, of which about 2,000 (0.91%) were called active. Inconclusive results (about 2%) are left out. Not all results are given here. Potency and affinity values are given separately.
Output spec: scalar in %, unitless text.

Lab note: COc1ccc(Nc2ccc(N3C(=O)CCCC3=O)cc2[N+](=O)[O-])cc1OC gave inhibition of -5.4

// inhibition lookup, molecule = O=C(Nc1ccccn1)C12CC3CC(C1)CC(C(=O)Nc1ccccn1)(C3)C2 , result: -2.92

Memo: C1CCC(c2nn3c(-c4n[nH]c5c4CCC5)nnc3s2)CC1 , reported inhibition: 9.35

For CC(=O)Nc1ccc(C(=O)NCC(=O)OCc2c(F)cccc2Cl)cc1 the molecule record lists inhibition as -1.08

Record c1ccc(-c2nnc3sc(Cc4cccs4)nn23)cc1 , field inhibition: 15.9

Lab note: COC(=O)c1ccc(/C=N/OCC(=O)NCc2ccc(F)cc2)cc1 gave inhibition of 6.23

Summary for this molecule, CC(C)CCN1CCN(Cc2ccc(C#CC(C)(C)O)s2)CC1CCO (configuration not stated) : inhibition is 9.71

###

Test protocol: M. tuberculosis H37Rv growth inhibitors, H37Rv strain (AID 1626)
Condition: hits give high values, concentration not given here
Screen size: about 220,000 compounds; about 2,000 (0.91%) were called active. Another 2% or so got no clear call; they are omitted. A selection follows. Measured potencies and affinities stand elsewhere.
Attribute measured: inhibition (%)
The answer is to be given in %; state only the numeric part.

Solved entries:
>>> value("Cc1nc2ccc(NC(=O)c3ccc4ccccc4n3)cc2s1")
-4.06
>>> value("CCCC(=O)Nc1ccc2oc(-c3ccncc3)nc2c1")
0.51
>>> value("CCCN1CCN(C(=O)c2ccc(Sc3ccc(C)cc3)c(NC(C)=O)c2)CC1")
3.99
>>> value("Cn1c(O)c(C(c2ccncc2)c2c(O)n(C)c(=S)n(C)c2=O)c(=O)n(C)c1=S")
-3.3
>>> value("O=C(c1ccc2c3c(cccc13)CC2)C1CCCN(Cc2ncc[nH]2)C1 (stereo not given)")
-5.62

# compound CCc1nnc(NC(=O)c2cc(C)nc3ccccc23)s1 ; its inhibition = -1.08

# compound O=C(N/N=C/c1ccc2c(c1)OCO2)c1cc(-c2ccccc2)nc2ccccc12 ; its inhibition = 9.28

Form field inhibition, entry O=C(COc1ccccc1)Nn1c(-c2ccccc2)nc2ccccc2c1=O : -3.31

Reported inhibition for Cc1ccc2oc(=O)c(/C=C(\O)c3ccccc3)nc2c1 was -10.4

Value of measured inhibition for the entry CCCCOC(=O)N/N=C/C=C/c1ccccc1 : 5.74

Please fill in: inhibition reported for CC(=O)Nc1nc(-c2ccccc2)c(-c2ccccc2)o1 = 56.4

Input N#CCCN(CCC#N)S(=O)(=O)c1ccc(C(=O)Nc2nnc(C3=COCCO3)o2)cc1 . Output inhibition: -6.19

Consider O=C(Nc1nnc(C2=COCCO2)o1)c1ccc(S(=O)(=O)N2CCCCC2)cc1 . Its measured inhibition is 78.6

Value of inhibition reported for the compound COc1ccc2cc(C(c3nnnn3CCc3ccccc3)N3CCC(O)CC3)c(=O)[nH]c2c1 (stereo not given) is 4.28

Measured inhibition, N=C1SCC(=O)N1c1nc(-c2ccccc2)cs1 : -8.62

Cc1cc(NC(=O)CSc2nc(C3CCCCC3)nc3ccccc23)no1 has a reported inhibition of 7.18

// inhibition lookup, compound = CCc1nnc(N2C(=N)SCC2=O)s1 , result: 10

For COC(=O)CNC(=O)COC(=O)/C=C/c1ccc2ccccc2n1 the compound record lists inhibition as 61.8

Record summary for COc1cccc(C2c3c(oc4ccccc4c3=O)C(=O)N2c2ccccn2)c1 (stereo not given) : reported inhibition = -5.48

Record summary for CCc1ccccc1NC(=O)CN(C)C(=O)Cn1cc(C(F)(F)F)cc(Cl)c1=O : reported inhibition = 10

Record O=C(c1ccc2c3c(cccc13)CC2)C1CCCN(Cc2ccncc2)C1 (stereo not given) , field inhibition: 3.23

The compound O=C(O)c1ccc(CS(=O)(=O)Cc2ccccc2F)o1 showed inhibition equal to -18.6

In plain terms, S=c1[nH]nc(CSCc2ccccc2Cl)n1C1CCCCC1 has a documented inhibition of 4.24

###

Test protocol: M. tuberculosis H37Rv growth inhibitors, H37Rv strain (AID 1626);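 note: bacteria incubated seven days before Alamar blue readout; 0% = bacteria only wells and 100% = bacteria with antibiotic wells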
Condition: hits give high values, concentration not given here
Out of some 220,000 compounds screened, about 2,000 (0.91%) were called active. Another 2% or so got no clear call; they are omitted. The list is a sample of the results. Results with a measured potency or affinity are listed apart.
# inhibition per record follows
Write the value in % as a bare number.

The following compounds have reported results that may help.
>>> value("COc1ccc(/C=C/C(=O)c2c(O)n(CCC3=CCCCC3)c(=O)[nH]c2=O)cc1OC")
36.6
>>> value("Cc1csc2c(N3CCN(C(=O)c4ccc(C(C)(C)C)cc4)CC3)ncnc12")
5.47
>>> value("COc1ccc(C(=O)O/N=C2\\CCS(=O)(=O)c3sccc32)cc1")
-3.81
>>> value("O=C(CSCc1ccccc1)Nc1ccc2c(c1)C(=O)NC2=O")
-3.24
>>> value("CCCCOC(=O)c1ccc(NC(C)=O)cc1")
58.3
>>> value("CC1(C)Cc2c(cnn2-c2ccccc2)-c2c1c1ccccc1n2CC(O)CBr (stereo not drawn)")
8.54

Memo: Cc1ccc(Oc2nc(CN3CCOCC3)nc3sc4c(c23)CCC(C)C4)cc1C (stereo not drawn) , reported inhibition: 40.8

Quick note, inhibition for Nc1nc(-c2cc3ccccc3o2)cs1 landed at 3.5

Sure, the documented inhibition for CCCCn1c(O)c(C(CC)=NCc2ccc3c(c2)OCO3)c(=O)[nH]c1=O is -0.92

The compound CCOC(=O)c1ccc(NC(=O)C(=O)NCCc2ccc(OC)cc2)cc1 showed inhibition equal to 2.35

Cc1cc(C(=O)COc2ccc3ccc(=O)oc3c2)c(C)n1C yielded inhibition of -5.12

Given item C[N+](C)(CC#Cc1ccccc1)CC(=O)c1ccc(Cl)cc1 , the value recorded as its inhibition is 0.9

Value of measured inhibition for the entry c1ccc2c(N3CCCCC3)nnc(N3CCCCC3)c2c1 : -2.8

###

Test protocol: M. tuberculosis H37Rv growth inhibitors, H37Rv strain (AID 1626);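 note: bacteria incubated seven days before Alamar blue readout; 0% = bacteria only wells and 100% = bacteria with antibiotic wells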
Condition: hits give high values, concentration not given here
The whole screen tested about 220,000 compounds, of which about 2,000 (0.91%) were called active. Inconclusive results (about 2%) are left out. A selection follows. Measured potencies and affinities stand elsewhere.
t means recorded inhibition is 10% or above; f means it is below 10%.

Field: example entries. Status: answers known.
>>> group("O=C(Nc1nc2ccccc2s1)c1cc(-c2ccco2)nc2ccccc12")
"t"
>>> group("COc1ccc(-c2cc(C(=O)Nc3nc4c(C)cccc4s3)c3ccccc3n2)cc1OC")
"t"
>>> group("COc1cccc(-c2cc(C(=O)Nn3cnnc3)c3ccccc3n2)c1")
"f"

In: Exam item: decide whether the reported inhibition for COC(=O)CC1COc2ccccc2N1C(=O)c1ccc(OC)cc1 (stereo not given) is at least 10%.
Out: f

In: Could you verify whether the entry Cc1cc(C(C)(C)C)ccc1OCCn1ccnc1 shows inhibition of no less than 10%?
Out: f

###

Test protocol: M. tuberculosis H37Rv growth inhibitors, H37Rv strain (AID 1626);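 note: bacteria incubated seven days before Alamar blue readout; 0% = bacteria only wells and 100% = bacteria with antibiotic wells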
Condition: hits give high values, concentration not given here
Out of some 220,000 compounds screened, about 2,000 (0.91%) were called active. Not shown: some 2% with an inconclusive outcome. Not all results are given here. Measured potencies and affinities stand elsewhere.
Attribute measured: inhibition (%)
Write down the numeric answer in % and omit the unit.

>>> value("CCOC(=O)c1ccc(NC(=O)CSc2nnnn2CCCO)cc1")
68.7
>>> value("O/N=C1\\CCCCc2ccccc21")
-4.26
>>> value("CCOC(=O)CC(=O)CSc1nc(N)c(C#N)c(-c2ccc(F)cc2)c1C#N")
-2.96

get_value(item= O=C(NCCCO)NC(=S)c1cccc2ccccc12 , readout=inhibition) returns -0.39

Summary for this compound, Cc1nnc(NN)n(N)c1=O : inhibition is -3.11

Reported inhibition of CCOC(=O)N1CCN(c2cc(C)nc3nc(C)nn23)CC1 : -2.69

The compound listed as COc1ccc(S(=O)(=O)N2CCOCC2)cc1Cl shows inhibition equal to 5.97

inhibition for CSc1nnc(-c2ccc([N+](=O)[O-])cc2)o1 is 34

The reported value for O=C(Nc1ccc2oc(-c3ccccc3Cl)nc2c1)c1cncc(Br)c1 in terms of inhibition is -3.07

Note to self: inhibition recorded for CC(C)OC(=O)CSc1nc(N)c(C#N)c(-c2cccs2)c1C#N was 40.9

// recorded inhibition for CCCCOC(=O)CSc1nc(N)c(C#N)c(-c2ccc(OCC)cc2)c1C#N : 57.9

Form: compound = O=C(Nc1nccs1)c1ccc(Cl)c(S(=O)(=O)N2CCOCC2)c1 ; inhibition = -20.2

// sample COc1cc(/C=N/n2c(-c3n[nH]c4c3CCC4)n[nH]c2=S)cc(OC)c1O , its inhibition was -6.81
